Test system: NCI/ADR-RES
Assay: Cytotoxicity against human NCI/ADR-RES cells assessed as cell growth at 10 uM
Assay type: functional
Settings: read-out: Activity
Mark TRUE only for growth at 10 µM values smaller than 60%; exact matches and larger values are FALSE.

• COc1cc(C)cc(-c2c(-c3ccnc(-c4ccc(N(C)C)cc4)c3)cnn2CC#N)c1 = TRUE
• Cc1cc(O)cc(-c2nn(CC#N)cc2-c2ccnc(-c3ccccc3)c2)c1 = FALSE
• Cc1cc(O)cc(-c2nn(CC#N)cc2-c2ccnc(-c3ccc(C#N)cc3)c2)c1 = FALSE
• Cc1cc(O)cc(-c2nn(CC#N)cc2-c2ccnc(-c3ccc(Oc4ccccc4)cc3)c2)c1 = TRUE
• COc1cc(C)cc(-c2nn(CC#N)cc2-c2ccnc(-c3ccc(N(C)C)cc3)c2)c1 = TRUE
• Cc1cc(O)cc(-c2nn(CC#N)cc2-c2ccnc(-c3ccc(N(C)C)cc3)c2)c1 = TRUE
• COc1cc(C)cc(-c2nn(CC#N)cc2-c2ccnc(-c3cccc(NC(C)=O)c3)c2)c1 = FALSE
• COc1cc(C)cc(-c2c(-c3ccnc(-c4cccc(NC(C)=O)c4)c3)cnn2CC#N)c1 = FALSE

* * *

System: HL-60(TB)
Test: Cytotoxicity against human HL-60(TB) cells assessed as cell growth at 100 nM after 48 hrs by sulforhodamine B assay
Assay type: functional
Conditions: HL-60, 48 h, read-out: Activity
# growth at 0.1 µM per record follows
TEST READOUT: growth at 0.1 µM (%)

* COc1cc(C)cc(-c2nn(CC#N)cc2-c2ccc(-c3cccc(C(C)=O)c3)nc2)c1 | 66
* COc1cc(C)cc(-c2nn(CC#N)cc2-c2ccnc(-c3ccc(N(C)C)cc3)c2)c1 | -3
* COc1cc(C)cc(-c2c(-c3ccnc(-c4ccc(N(C)C)cc4)c3)cnn2CC#N)c1 | -26
* Cc1cc(O)cc(-c2nn(CC#N)cc2-c2ccnc(-c3ccc(N(C)C)cc3)c2)c1 | 98
* COc1cc(C)cc(-c2c(-c3ccnc(-c4ccc(C(C)=O)cc4)c3)cnn2CC#N)c1 | 88
* Cc1cc(O)cc(-c2nn(CC#N)cc2-c2ccnc(-c3ccc(Oc4ccccc4)cc3)c2)c1 | 92

* * *

# CC50 per record follows
System: NCI-H322M
Assay: Growth inhibition of human NCI-H322M cells after 48 hrs by sulforhodamine B assay
Assay type: functional
Details: read-out: LC50 (the source's name)
TEST READOUT: CC50

* COc1cc(C)cc(-c2nn(CC#N)cc2-c2ccnc(-c3ccc(N(C)C)cc3)c2)c1 | > 100 µM
* COc1cc(C)cc(-c2nn(CC#N)cc2-c2ccc(-c3cccc(C(C)=O)c3)nc2)c1 | > 100 µM
* COc1cc(C)cc(-c2c(-c3ccnc(-c4ccc(N(C)C)cc4)c3)cnn2CC#N)c1 | > 100 µM
* Cc1cc(O)cc(-c2nn(CC#N)cc2-c2ccnc(-c3ccc(Oc4ccccc4)cc3)c2)c1 | 48.6 µM
* COc1cc(C)cc(-c2c(-c3ccnc(-c4ccc(C(C)=O)cc4)c3)cnn2CC#N)c1 | > 100 µM
* Cc1cc(O)cc(-c2nn(CC#N)cc2-c2ccnc(-c3ccc(N(C)C)cc3)c2)c1 | > 100 µM

* * *

Measured growth at 10 µM accompanies every entry in the list below.
System: BT-549
Assay: Cytotoxicity against human BT549 cells assessed as cell growth at 10 uM after 48 hrs by sulforhodamine B assay
Format: functional
Conditions: BT-549, 48 h, read-out: Activity
TEST READOUT: growth at 10 µM (%)

- Cc1cc(O)cc(-c2nn(CC#N)cc2-c2ccnc(-c3ccc(N(C)C)cc3)c2)c1: -43
- Cc1cc(O)cc(-c2nn(CC#N)cc2-c2ccnc(-c3ccc(Oc4ccccc4)cc3)c2)c1: -81
- COc1cc(C)cc(-c2nn(CC#N)cc2-c2ccc(-c3cccc(C(C)=O)c3)nc2)c1: -24
- COc1cc(C)cc(-c2c(-c3ccnc(-c4ccc(N(C)C)cc4)c3)cnn2CC#N)c1: -25
- COc1cc(C)cc(-c2c(-c3ccnc(-c4ccc(C(C)=O)cc4)c3)cnn2CC#N)c1: 24
- COc1cc(C)cc(-c2nn(CC#N)cc2-c2ccnc(-c3ccc(N(C)C)cc3)c2)c1: -30
